Hello, the source for this data is ChEMBL document CHEMBL5036315, in case you need it.

# experimental_details: Aqueous solubility of the compound at pH 7.4
# Assay type: physicochemical
# applied_conditions: aqueous solution
quantity_name: solubility (µg/mL)
# value in µg/mL; strip the unit string

query: Item CO[C@@H]1[C@@H](n2cc(-c3cc(F)c(F)c(F)c3)nn2)[C@@H](O)[C@@H](CO)O[C@H]1S[C@@H]1COC[C@H](n2cc(-c3cncnc3)nn2)[C@H]1O has what recorded solubility?
result: 3

====

# experimental_details: Metabolic stability in human liver microsomes assessed as compound remaining at 0.5 uM incubated for10 mins in presence of NADPH by LC-MS/MS analysis
# Type: ADME, Microsome
# applied_conditions: read-out: Stability
quantity_name: remaining at 10 min, 0.5 µM (%)

> print(dat)
                      smiles.representation  reading
1  CO[C@@H]1[C@@H](n2cc(-c3cc(F)c(F)c(F)c3)nn2)[C@@H](O)[C@@H](CO)O[C@H]1S[C@@H]1COC[C@H](n2cc(-c3cccc(F)c3)nn2)[C@H]1O       78

(I) CO[C@@H]1[C@@H](n2cc(-c3cc(F)c(F)c(F)c3)nn2)[C@@H](O)[C@@H](CO)O[C@H]1S[C@@H]1COC[C@H](n2cc(-c3cccc(O)c3)nn2)[C@H]1O
(II) CO[C@@H]1[C@@H](n2cc(-c3cc(F)c(F)c(F)c3)nn2)[C@@H](O)[C@@H](CO)O[C@H]1S[C@@H]1COC[C@H](n2cc(-c3cncnc3)nn2)[C@H]1O
query: Hi there! Just curious which has the higher remaining at 10 min, 0.5 µM between I and II . Returns: label corresponding to the selected item.
result: I
(I: 98%, II: 45%)

====

# experimental_details: Cmax in C57BL/6 mouse at 30 mg/kg, sc measured upto 24 hrs
# Type: ADME, organism-based
# Parameters: route subcutaneous, dose 30 mg/kg, time <=24
# applied_conditions: in vivo
quantity_name: Cmax (µM)

(I) CO[C@@H]1[C@@H](n2cc(-c3cc(F)c(F)c(F)c3)nn2)[C@@H](O)[C@@H](CO)O[C@H]1S[C@@H]1COC[C@H](n2cc(-c3cncnc3)nn2)[C@H]1O
(II) OC[C@H]1O[C@@H](S[C@@H]2O[C@H](CO)[C@H](O)[C@H](n3cc(-c4cccc(F)c4)nn3)[C@H]2O)[C@H](O)[C@@H](n2cc(-c3cccc(F)c3)nn2)[C@H]1O
query: Of I and II , which shows the smaller Cmax value? Returns: label corresponding to the selected item.
result: I
(I: 5.9 µM, II: 10.3 µM)

====

# experimental_details: Volume of distribution at steady state in C57BL/6 mouse at 2 mg/kg, iv measured upto 24 hrs
# Assay type: ADME, organism-based
# applied_conditions: in vivo
quantity_name: Vss (L/kg)

(I) CO[C@@H]1[C@@H](n2cc(-c3cc(F)c(F)c(F)c3)nn2)[C@@H](O)[C@@H](CO)O[C@H]1S[C@@H]1COC[C@H](n2cc(-c3cncnc3)nn2)[C@H]1O
(II) CO[C@@H]1[C@@H](n2cc(-c3cc(F)c(F)c(F)c3)nn2)[C@@H](O)[C@@H](CO)O[C@H]1S[C@@H]1COC[C@H](n2cc(-c3cccc(F)c3)nn2)[C@H]1O
(III) CO[C@@H]1[C@@H](n2cc(-c3cc(F)c(F)c(F)c3)nn2)[C@@H](O)[C@@H](CO)O[C@H]1S[C@@H]1COC[C@H](n2cc(-c3cccc(O)c3)nn2)[C@H]1O
(IV) OC[C@H]1O[C@@H](S[C@@H]2O[C@H](CO)[C@H](O)[C@H](n3cc(-c4cccc(F)c4)nn3)[C@H]2O)[C@H](O)[C@@H](n2cc(-c3cccc(F)c3)nn2)[C@H]1O
query: Descending by Vss please, for everything listed above. Field: ranking. Enter the labels in the order requested.
result: II, I, III, IV

====

# experimental_details: Oral bioavailability in C57BL/6 mouse at 30 mg/kg measured upto 24 hrs
# Assay type: ADME, organism-based
# applied_conditions: in vivo
quantity_name: bioavailability (%)

(1) CO[C@@H]1[C@@H](n2cc(-c3cc(F)c(F)c(F)c3)nn2)[C@@H](O)[C@@H](CO)O[C@H]1S[C@@H]1COC[C@H](n2cc(-c3cccc(O)c3)nn2)[C@H]1O
(2) CO[C@@H]1[C@@H](n2cc(-c3cc(F)c(F)c(F)c3)nn2)[C@@H](O)[C@@H](CO)O[C@H]1S[C@@H]1COC[C@H](n2cc(-c3cccc(F)c3)nn2)[C@H]1O
(3) OC[C@H]1O[C@@H](S[C@@H]2O[C@H](CO)[C@H](O)[C@H](n3cc(-c4cccc(F)c4)nn3)[C@H]2O)[C@H](O)[C@@H](n2cc(-c3cccc(F)c3)nn2)[C@H]1O [OLITIGALTIN]
query: Descending by bioavailability please, for everything listed above. Field: ranking. Enter the labels in the order requested.
result: 2, 3, 1
(2: 2%, 3: 1%, 1: 0.3%)

====

# experimental_details: Bioavailability in C57BL/6 mouse at 30 mg/kg, sc measured upto 24 hrs
# Format: ADME, organism-based
# applied_conditions: C57BL/6, mouse, in vivo
quantity_name: bioavailability (%)
# value in %; strip the unit string

query: Item OC[C@H]1O[C@@H](S[C@@H]2O[C@H](CO)[C@H](O)[C@H](n3cc(-c4cccc(F)c4)nn3)[C@H]2O)[C@H](O)[C@@H](n2cc(-c3cccc(F)c3)nn2)[C@H]1O has what recorded bioavailability?
result: 66

====

# experimental_details: Cmax in C57BL/6 mouse at 30 mg/kg, po measured upto 24 hrs
# Assay type: ADME, organism-based
# Design: route oral, dose 30 mg/kg, time <=24
# applied_conditions: in vivo
quantity_name: Cmax (nM)

compound	display_unit	Cmax
OC[C@H]1O[C@@H](S[C@@H]2O[C@H](CO)[C@H](O)[C@H](n3cc(-c4cccc(F)c4)nn3)[C@H]2O)[C@H](O)[C@@H](n2cc(-c3cccc(F)c3)nn2)[C@H]1O [OLITIGALTIN]	nM	300

(A) CO[C@@H]1[C@@H](n2cc(-c3cc(F)c(F)c(F)c3)nn2)[C@@H](O)[C@@H](CO)O[C@H]1S[C@@H]1COC[C@H](n2cc(-c3cccc(O)c3)nn2)[C@H]1O
(B) CO[C@@H]1[C@@H](n2cc(-c3cc(F)c(F)c(F)c3)nn2)[C@@H](O)[C@@H](CO)O[C@H]1S[C@@H]1COC[C@H](n2cc(-c3cccc(F)c3)nn2)[C@H]1O
query: Of A and B , which shows the smaller Cmax value? Returns: label corresponding to the selected item.
result: A

====

# experimental_details: Half life in C57BL/6 mouse at 2 mg/kg, iv measured upto 24 hrs
# Type: ADME, organism-based
# applied_conditions: in vivo
quantity_name: half-life (h)

smiles_representation	reading
OC[C@H]1O[C@@H](S[C@@H]2O[C@H](CO)[C@H](O)[C@H](n3cc(-c4cccc(F)c4)nn3)[C@H]2O)[C@H](O)[C@@H](n2cc(-c3cccc(F)c3)nn2)[C@H]1O	1.6
CO[C@@H]1[C@@H](n2cc(-c3cc(F)c(F)c(F)c3)nn2)[C@@H](O)[C@@H](CO)O[C@H]1S[C@@H]1COC[C@H](n2cc(-c3cncnc3)nn2)[C@H]1O	1.4

(1) CO[C@@H]1[C@@H](n2cc(-c3cc(F)c(F)c(F)c3)nn2)[C@@H](O)[C@@H](CO)O[C@H]1S[C@@H]1COC[C@H](n2cc(-c3cccc(F)c3)nn2)[C@H]1O
(2) CO[C@@H]1[C@@H](n2cc(-c3cc(F)c(F)c(F)c3)nn2)[C@@H](O)[C@@H](CO)O[C@H]1S[C@@H]1COC[C@H](n2cc(-c3cccc(O)c3)nn2)[C@H]1O
query: Hi there! Just curious which has the higher half-life between 1 and 2 . Returns: label corresponding to the selected item.
result: 1

====

# experimental_details: Aqueous solubility of the compound at pH 1
# Type: physicochemical
# applied_conditions: aqueous solution
quantity_name: solubility

> print(dat)
                      smiles.representation    reading
1  CO[C@@H]1[C@@H](n2cc(-c3cc(F)c(F)c(F)c3)nn2)[C@@H](O)[C@@H](CO)O[C@H]1S[C@@H]1COC[C@H](n2cc(-c3cncnc3)nn2)[C@H]1O    6 µg/mL
2  COc1cnc(-c2cn([C@H]3COC[C@@H](S[C@@H]4O[C@H](CO)[C@H](O)[C@H](n5cc(-c6cc(F)c(F)c(F)c6)nn5)[C@H]4OC)[C@@H]3O)nn2)nc1  < 1 µg/mL
3  CO[C@@H]1[C@@H](n2cc(-c3cc(F)c(F)c(F)c3)nn2)[C@@H](O)[C@@H](CO)O[C@H]1S[C@@H]1COC[C@H](n2cc(-c3nccs3)nn2)[C@H]1O  < 1 µg/mL

Read the next record carefully.
query: Item COc1ncc(-c2cn([C@H]3COC[C@@H](S[C@@H]4O[C@H](CO)[C@H](O)[C@H](n5cc(-c6cc(F)c(F)c(F)c6)nn5)[C@H]4OC)[C@@H]3O)nn2)cn1 has what recorded solubility?
result: < 1 µg/mL
